System: primary human T-cells | Read-out: EC50;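 further: cd3-stimulated proliferation read by CellTiter-Glo after 5 days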

Molecule	Tgt	Result Units	Prefix Operator	EC50
CCn1cc(-c2cc3c(cc2F)S(=O)(=O)C[C@H](N)C(=O)N3Cc2ccc(Cl)cc2)nn1 [Example 6]	primary human T-cells	nM	>	20000
CC(C)(C)c1nc(-c2cc3c(cc2F)S(=N)(=O)C[C@H](N)C(=O)N3Cc2ccc(Cl)cc2)no1 (stereo partly shown) [Example 516]	primary human T-cells	nM	=	2740
COC(F)(c1nnc(-c2ccc3c(c2)N(Cc2ccc(OC(F)(F)F)cc2)C(=O)[C@@H](N)C[S+]3[O-])o1)C(F)(F)F (single isomer, unassigned; epimer b) [Example 426]	primary human T-cells	nM	=	1290
Cc1nc(F)ccc1-c1nnc(-c2cc3c(cc2F)S(=O)(=O)C[C@H](N)C(=O)N3Cc2ccc(Cl)cc2)o1 [Example 131]	primary human T-cells	nM	=	376
